# Lookup of reported TGI keyed by entry
# Test system: NCI-H522 lung
# assay_remarks: NCI tumour cell line growth inhibition, 48 h
Provide the reading as a plain figure in µM.

Guide cases for TGI, answers given:
structure_as_smiles=C[C@H](Nc1nc(NCCc2ccccc2)nc2ccccc12)c1ccccc1 measured_property=TGI observed_value=3.09
structure_as_smiles=O=C(NN1C(=O)/C(=C/C=C/c2ccc([N+](=O)[O-])o2)SC1=S)c1ccc(O)cc1 measured_property=TGI observed_value=0.498

# ---- query compound ----
Can you share its TGI? I mean this compound: `Nc1nc2cc(-c3ccc4ncnc(NCc5ccccc5)c4c3)ccc2o1` 38.4

---

# Lookup of reported GI50 keyed by entry
# Test system: MDA-MB-468 breast
# assay_remarks: NCI tumour cell line growth inhibition, 48 h

molecule="Nc1ccc(-c2cccs2)cc1NC(=O)c1ccc(CCCC(=O)Nc2ccc(C3CC3N)cc2)cc1 (centres undefined)" observed_value="1900 nM"
molecule=C/C(O)=C(\C#N)C(=O)Nc1ccc(C(F)(F)F)cc1 observed_value="37200 nM"
molecule=CC1(C)NCCC[C@]2(C)[C@H]3CC[C@@H]4[C@H]5[C@H](C(=O)/C=C/c6ccccn6)CC[C@]5(CO)CC[C@@]4(C)[C@]3(C)CC[C@@H]12 observed_value="2080 nM"
molecule=NS(=O)(=O)NCCNc1nonc1C(=Nc1ccc(F)c(Br)c1)NO observed_value="23500 nM"
molecule=Clc1ccccc1CNc1c2ccccc2nc2ccccc12 observed_value="1120 nM"

Can you share its GI50? I mean this molecule: `CCc1ccc(C(=Nc2ccc(N(C)C(=O)CN3CCN(C)CC3)cc2)c2c(O)[nH]c3ccc(C(=O)OC)cc23)cc1` 730 nM

Can you share its GI50? I mean this molecule: `CC(=[N-])N1CCC[C@@H](Nc2c3ccccc3nc3ccccc23)C1.[Cl][Pt].[NH-]CCC[NH-]` 128 nM

Can you share its GI50? I mean this molecule: `CCCN(CCC)c1ccc(/C=N/NC(=O)c2cccnc2)c(OC)c1` 6220 nM

Can you share its GI50? I mean this molecule: O=C(/C=C/C12c3ccccc3C(c3ccccc31)C1C(=O)NC(=O)C12)c1ccc(F)cc1 (centres undefined) 1990 nM

---

# Tested on: MDA-MB-468 breast
# assay_remarks: NCI tumour cell line growth inhibition, 48 h
measured_property: TGI (µM)
Provide the reading as a plain figure in µM.

Guide cases for TGI, answers given:
molecule=CCn1c(-c2nonc2N)nc2c(C#CC(C)(C)O)ncc(OC[C@H]3CCCNC3)c21 measured_property=TGI unit=µM observed_value=18.9
molecule="C[N+](C)(C)CC(=O)N/N=C(\\C(=O)NC1=C(Cl)C(=O)c2ccccc2C1=O)C(C#N)c1nc(-c2ccc([N+](=O)[O-])cc2)cs1 (stereo not given)" measured_property=TGI unit=µM observed_value=16
molecule=CC1(C)NCCC[C@]2(C)[C@H]3CC[C@@H]4[C@H]5[C@H](C(=O)/C=C/c6ccccn6)CC[C@]5(CO)CC[C@@]4(C)[C@]3(C)CC[C@@H]12 measured_property=TGI unit=µM observed_value=4.77
molecule=COC(=O)c1ccc(NC2=C(Cl)C(=O)C(C)=C(C)C2=O)cc1 measured_property=TGI unit=µM observed_value=3.1
molecule="O=C(/C=C/C12c3ccccc3C(c3ccccc31)C1C(=O)NC(=O)C12)c1ccc(F)cc1 (stereo not given)" measured_property=TGI unit=µM observed_value=4.1

Can you share its TGI? I mean this molecule: `CC1(N)CCN(c2cnc(-c3cccc(Cl)c3Cl)c(N)n2)CC1` 17.2

Can you share its TGI? I mean this molecule: C=C1C(=O)O[C@H]2[C@H]1CC/C(COC(=O)C(C)c1ccc(CC(C)C)cc1)=C\CC[C@@]1(C)O[C@@H]21 (stereo not given in full) 3.79

Can you share its TGI? I mean this molecule: `Nc1nc2cc(-c3ccc4ncnc(NCc5ccccc5)c4c3)ccc2o1` 7.67

---

# Lookup of reported GI50 keyed by entry
# System: COLO 205 colon
# assay_remarks: NCI tumour cell line growth inhibition, 48 h

structure_as_smiles=O=C(NN1C(=O)/C(=C/C=C/c2ccc([N+](=O)[O-])o2)SC1=S)c1ccc(O)cc1 observed_value="1730 nM"
structure_as_smiles=O=C(/C=C/c1ccccc1Cl)c1nc2ccccc2n1Cc1ccc(F)cc1 observed_value="4010 nM"

Can you share its GI50? I mean this compound: `Nc1nc2cc(-c3ccc4ncnc(NCc5ccccc5)c4c3)ccc2o1` 14400 nM

Can you share its GI50? I mean this compound: `O=C(NN1C(=O)/C(=C/C=C/c2ccc([N+](=O)[O-])o2)SC1=S)c1ccncc1` 1520 nM

---

# Tested on: 786-0 renal
# assay_remarks: NCI tumour cell line growth inhibition, 48 h
# Lookup of reported GI50 keyed by entry

Guide cases for GI50, answers given:
structure_as_smiles=C[C@H](Nc1nc(NCCc2ccccc2)nc2ccccc12)c1ccccc1 measured_property=GI50 observed_value="1480 nM"
structure_as_smiles=Nc1nc2cc(-c3ccc4ncnc(NCc5ccccc5)c4c3)ccc2o1 measured_property=GI50 observed_value="13000 nM"
structure_as_smiles=O=C(NN1C(=O)/C(=C/C=C/c2ccc([N+](=O)[O-])o2)SC1=S)c1ccc(O)cc1 measured_property=GI50 observed_value="1780 nM"

Can you share its GI50? I mean this molecule: `O=C(NN1C(=O)/C(=C/C=C/c2ccc([N+](=O)[O-])o2)SC1=S)c1ccncc1` 960 nM

---

# Lookup of reported GI50 keyed by entry
# Test system: MDA-MB-468 breast
# assay_remarks: NCI tumour cell line growth inhibition, 48 h

Guide cases for GI50, answers given:
molecule="C=C1C(=O)O[C@H]2[C@H]1CC/C(COC(=O)C(C)c1ccc(CC(C)C)cc1)=C\\CC[C@@]1(C)O[C@@H]21 (stereo not given in full)" observed_value="1760 nM"
molecule=CN1CCN(c2ccc(NC(=O)c3cncnc3Nc3ccc(OCc4ccccn4)c(Cl)c3)cc2)CC1 observed_value="3880 nM"

Observed GI50 on MDA-MB-468 breast for `COc1ccc2c(c1)C(=O)/C(=C/c1ccc([N+](=O)[O-])o1)O2` , please. 818 nM

Observed GI50 on MDA-MB-468 breast for `Cc1cc(N2CCOCC2)nc(N(CCCNc2ccnc3cc(Cl)ccc23)Cc2ccco2)n1` , please. 2210 nM

Observed GI50 on MDA-MB-468 breast for `CCOC(=O)c1ccc(NC2=C(Cl)C(=O)c3nc(C)ccc3C2=O)cc1` , please. 1660 nM
